Molecular target: STING (Homo sapiens, UniProt Q86WV6, G230A/H232R/R293Q/R71H)
Sequence (Q86WV6 whole entry R71H/G230A/H232R/R293Q): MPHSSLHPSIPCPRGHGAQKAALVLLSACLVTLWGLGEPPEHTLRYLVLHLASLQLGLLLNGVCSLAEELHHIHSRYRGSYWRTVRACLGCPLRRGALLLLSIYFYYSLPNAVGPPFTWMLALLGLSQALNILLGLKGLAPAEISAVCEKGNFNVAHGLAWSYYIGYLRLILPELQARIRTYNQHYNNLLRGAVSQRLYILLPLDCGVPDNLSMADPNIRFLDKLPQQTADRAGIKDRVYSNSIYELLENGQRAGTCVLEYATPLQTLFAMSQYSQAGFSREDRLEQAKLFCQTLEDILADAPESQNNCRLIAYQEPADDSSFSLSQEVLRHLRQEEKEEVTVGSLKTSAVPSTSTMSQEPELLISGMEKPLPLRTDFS
Assay: STING reporter assay: luciferase reporter activity in THP1-Dual KO-IFNAR2 cells stimulated with 2′3′cGAMP
Conditions: 15 μM 2′3′cGAMP, 24h, read-out: hSTING EC50
EXPERIMENTAL ENDPOINT: EC50

{"SMILES INPUT": "O=C(Nc1c[nH]c2ccc(-c3cnn(-c4ccc(C(F)(F)F)cc4)c3)cc12)C1(O)CCC1", "SYSTEM TESTED": "STING (Homo sapiens, UniProt Q86WV6, G230A/H232R/R293Q/R71H)", "RESULT": "0.2 to 1 µM"}
{"SMILES INPUT": "CCc1ccc(-n2cc(-c3ccc4[nH]cc(NC(=O)CCC#N)c4c3)cn2)cc1", "SYSTEM TESTED": "STING (Homo sapiens, UniProt Q86WV6, G230A/H232R/R293Q/R71H)", "RESULT": "0.2 to 1 µM"}
{"SMILES INPUT": "CN1C(=O)CC[C@H]1C(=O)Nc1c[nH]c2ccc(-c3cnn(-c4ccc(C(F)(F)F)cc4)c3)cc12", "SYSTEM TESTED": "STING (Homo sapiens, UniProt Q86WV6, G230A/H232R/R293Q/R71H)", "RESULT": "5 to 100 µM"}
{"SMILES INPUT": "Cc1nc(C(=O)Nc2c[nH]c3ccc(-c4cnn(-c5ccc(C(F)(F)F)cc5)c4)cc23)co1", "SYSTEM TESTED": "STING (Homo sapiens, UniProt Q86WV6, G230A/H232R/R293Q/R71H)", "RESULT": "0.2 to 1 µM"}

Param item = "CC(C)(CO)C(=O)Nc1c[nH]c2ccc(-c3cnn(-c4ccc(C(F)(F)F)cc4)c3)cc12" ; retrieve measured EC50.
1 to 5 µM

Now consider "C[C@@H](c1cccc(C(F)(F)F)c1)n1cc(-c2ccc3[nH]cc(NC(=O)C4CCC4)c3c2)cn1" and answer again.
0.2 to 1 µM

Now consider "CCC(=O)Nc1c[nH]c2ccc(-c3ccc(-c4cnn(C(C)C)c4)cc3)cc12" and answer again.
1 to 5 µM

Now consider "O=C(Nc1c[nH]c2ccc(-c3cnn(Cc4ccc(C(F)(F)F)cn4)c3)cc12)C1CCC1" and answer again.
0.2 to 1 µM

Now consider "CC(=O)Nc1c[nH]c2ccc(-c3cnn(-c4ccc(C5(C)CCCCC5)cc4)c3)cc12" and answer again.
1 to 5 µM

Now consider "O=C(Nc1c[nH]c2ccc(-c3cnn(-c4ccc(C(F)(F)F)cc4)c3)cc12)C1(O)CCCCC1" and answer again.
0.2 to 1 µM

Now consider "CCC(=O)Nc1c[nH]c2ccc(-c3cnn(-c4ccc(CC)nc4)c3)cc12" and answer again.
1 to 5 µM

Now consider "O=C(Nc1c[nH]c2ccc(-c3cnn(-c4ccc(C(F)(F)F)cc4)c3)cc12)C1CCC1" and answer again.
0.2 to 1 µM

----------
Biological target: STING (Homo sapiens, UniProt Q86WV6, G230A/H232R/R293Q/R71H)
Test: STING reporter assay: luciferase reporter activity in THP1-Dual KO-IFNAR2 cells stimulated with 2′3′cGAMP
Settings: 15 μM 2′3′cGAMP, 24h, read-out: hSTING EC50
Protocol: STING pathway activation by the compounds described herein was measured using THP 1-Dual™ cells (KO-IFNAR2). […] 2 mL of solution A and 2 ml Solution B was mixed and incubated for 20 min at room temperature (RT). […] Luciferase reporter activity was then measured. EC50 values were calculated by using standard methods known in the art. […] Luciferase reporter activity was then measured. EC50 values were calculated by using standard methods known in the art.
pEC50: −log10 of the molar value.
EXPERIMENTAL ENDPOINT: pEC50

{"COMPOUND": "CCC(=O)Nc1c[nH]c2ccc(-c3cnn(-c4ccc(OCC(F)(F)F)cc4)c3)cc12", "pEC50": "6.70 to 7.40"}

Param item = "CCC(=O)Nc1c[nH]c2ccc(-c3cnn(Cc4cccc(C(F)(F)F)c4)c3)cc12" ; retrieve measured pEC50.
6.00 to 6.70

Now consider "CCC(=O)Nc1c[nH]c2ccc(-c3cnn(-c4ccc(C(F)(F)F)cn4)c3)cc12" and answer again.
6.00 to 6.70

Now consider CN1CC(C(=O)Nc2c[nH]c3ccc(-c4cnn(-c5ccc(C(F)(F)F)cc5)c4)cc23)CCC1=O (stereo not drawn) and answer again.
5.30 to 6.00

Now consider "O=C(Nc1c[nH]c2ccc(-c3cnn(-c4ccc(C(F)(F)F)cc4)c3)cc12)c1ncco1" and answer again.
5.30 to 6.00

Now consider "CC(C)[C@H](O)C(=O)Nc1c[nH]c2ccc(-c3cnn(-c4ccc(C(F)(F)F)cc4)c3)cc12" and answer again.
5.30 to 6.00

----------
Target: STING (Homo sapiens, UniProt Q86WV6, G230A/H232R/R293Q/R71H)
Assay: STING reporter assay: luciferase reporter activity in THP1-Dual KO-IFNAR2 cells stimulated with 2′3′cGAMP
Conditions: 15 μM 2′3′cGAMP, 24h, read-out: hSTING EC50
pEC50: −log10 of the molar value.
EXPERIMENTAL ENDPOINT: pEC50

Please review the following examples before continuing.
{"MOLECULE": "CCc1ccc(-n2cc(-c3ccc4[nH]cc(NC(=O)C5COC5)c4c3)cn2)cc1", "SYSTEM TESTED": "STING (Homo sapiens, UniProt Q86WV6, G230A/H232R/R293Q/R71H)", "RESULT": "6.00 to 6.70"}
{"MOLECULE": "O=C(Nc1c[nH]c2ccc(-c3cnn(-c4ccc(C(F)(F)F)cc4)c3)cc12)c1nccs1", "SYSTEM TESTED": "STING (Homo sapiens, UniProt Q86WV6, G230A/H232R/R293Q/R71H)", "RESULT": "5.30 to 6.00"}
{"MOLECULE": "CC(C)(C)C(=O)Nc1c[nH]c2ccc(-c3cnn(-c4ccc(C(F)(F)F)cc4)c3)cc12", "SYSTEM TESTED": "STING (Homo sapiens, UniProt Q86WV6, G230A/H232R/R293Q/R71H)", "RESULT": "5.30 to 6.00"}
{"MOLECULE": "COCCOCC(=O)Nc1c[nH]c2ccc(-c3cnn(-c4ccc(C(F)(F)F)cc4)c3)cc12", "SYSTEM TESTED": "STING (Homo sapiens, UniProt Q86WV6, G230A/H232R/R293Q/R71H)", "RESULT": "6.00 to 6.70"}
{"MOLECULE": "O=C(Nc1c[nH]c2ccc(-c3cnn(-c4ccc(C(F)(F)F)cc4)c3)cc12)C1(O)CCCC1", "SYSTEM TESTED": "STING (Homo sapiens, UniProt Q86WV6, G230A/H232R/R293Q/R71H)", "RESULT": "6.00 to 6.70"}
{"MOLECULE": "N#CC1(C(=O)Nc2c[nH]c3ccc(-c4cnn(-c5ccc(C(F)(F)F)cc5)c4)cc23)CC1", "SYSTEM TESTED": "STING (Homo sapiens, UniProt Q86WV6, G230A/H232R/R293Q/R71H)", "RESULT": "5.30 to 6.00"}

Param item = "Cn1cnc(C(=O)Nc2c[nH]c3ccc(-c4cnn(-c5ccc(C(F)(F)F)cc5)c4)cc23)c1" ; retrieve measured pEC50.
5.30 to 6.00

Now consider CC(C)CC(C)(N)C(=O)Nc1c[nH]c2ccc(-c3cnn(-c4ccc(C(F)(F)F)cc4)c3)cc12 (stereo not drawn) and answer again.
4.00 to 5.30

Now consider "CC(C)(O)C(=O)Nc1c[nH]c2ccc(-c3cnn(-c4ccc(C(F)(F)F)cc4)c3)cc12" and answer again.
5.30 to 6.00

----------
Molecular target: STING (Homo sapiens, UniProt Q86WV6, G230A/H232R/R293Q/R71H)
Assay: STING reporter assay: luciferase reporter activity in THP1-Dual KO-IFNAR2 cells stimulated with 2′3′cGAMP
Details: 15 μM 2′3′cGAMP, 24h, read-out: hSTING EC50
pEC50: −log10 of the molar value.
EXPERIMENTAL ENDPOINT: pEC50

Please review the following examples before continuing.
{"MOLECULE": "CC1(C(=O)Nc2c[nH]c3ccc(-c4cnn(-c5ccc(C(F)(F)F)cc5)c4)cc23)CCOCC1", "pEC50": "5.30 to 6.00"}
{"MOLECULE": "C[C@@H](O)C(=O)Nc1c[nH]c2cc(F)c(-c3cnn(-c4ccc(C(F)(F)F)cc4)c3)cc12", "pEC50": "6.00 to 6.70"}
{"MOLECULE": "CCC(=O)Nc1c[nH]c2ccc(-c3cnn(-c4ccccc4)c3)cc12", "pEC50": "6.00 to 6.70"}
{"MOLECULE": "O=C(Nc1c[nH]c2ccc(-c3cnn(-c4ccc(C(F)(F)F)cc4)c3)cc12)c1cn[nH]c1", "pEC50": "6.00 to 6.70"}
{"MOLECULE": "CCc1ccc(-n2cc(-c3ccc4[nH]cc(NC(=O)C5CCCCO5)c4c3)cn2)cc1 (stereo not drawn)", "pEC50": "6.00 to 6.70"}
{"MOLECULE": "CCC(=O)Nc1c[nH]c2ccc(-c3cccc(COC)c3)cc12", "pEC50": "4.00 to 5.30"}
{"MOLECULE": "O=C1CCC[C@@H](C(=O)Nc2c[nH]c3ccc(-c4cnn(-c5ccc(C(F)(F)F)cc5)c4)cc23)N1", "pEC50": "5.30 to 6.00"}
{"MOLECULE": "CCC(C)(O)C(=O)Nc1c[nH]c2ccc(-c3cnn(-c4ccc(C(F)(F)F)cc4)c3)cc12 (stereo not drawn)", "pEC50": "5.30 to 6.00"}

Param item = "CC(C)(N)CC(=O)Nc1c[nH]c2ccc(-c3cnn(-c4ccc(C(F)(F)F)cc4)c3)cc12" ; retrieve measured pEC50.
4.00 to 5.30

Now consider "CCC(=O)Nc1c[nH]c2cc(F)c(-c3cnn(-c4ccc(CC)cc4)c3)cc12" and answer again.
6.00 to 6.70
